The reported numbers originate from ChEMBL document CHEMBL1149108.

# experiment-description: Half-life in human plasma was determined
# Assay type: ADME
Recorded half-life by entry

                         compound_structure  result
0  CC(C)C[C@H](NC(=O)C1=CCCNC1)C(=O)N[C@@H](CC(C)C)C(=O)N[C@@H](CC(C)C)C(=O)NCc1ccccc1  4.92 h
1  CC(C)C[C@H](NC(=O)[C@H](CO)NC(=O)[C@H](Cc1ccccc1)NC(=O)C1=CCCNC1)C(=O)NCc1ccccc1   > 6 h

Could you now consider this next compound?
### Prompt Fill in: half-life of CC(C)C[C@H](NC(=O)[C@H](CO)NC(=O)[C@@H](NC(=O)C1=CCCNC1)C(C)C)C(=O)NCc1ccccc1 is ___
### Response > 6 h

====

# system-under-test: Proteasome
# experiment-description: Inhibitory activity was evaluated against trypsin-like (proteasome) enzyme
# Format: subcellular
Non-standard residues stand in square brackets, D forms with d. Residues, ends and D or L forms follow the SMILES beside them. ξ: configuration not given here. *: point of attachment. Cbz = O=C(OCc1ccccc1)*; ξNle = CCCCC(N)C(=O)O; NHBn = c1ccc(CN*)cc1
property: IC50 (µM)
Please state the figure in µM; there is no need to write the unit.

Check out these entries, answers already filled in.
compound	numeric-result
CCCCC(NC(=O)OCc1ccccc1)C(=O)N[C@@H](CO)C(=O)N[C@@H](CC(C)C)C(=O)NCc1ccccc1 (stereo partly drawn) (Cbz-[ξNle]-Ser-Leu-NHBn)	18.2
CC(C)C[C@H](NC(=O)OCC1c2ccccc2-c2ccccc21)C(=O)N[C@@H](CC(C)C)C(=O)N[C@@H](CC(C)C)C(=O)NCc1ccccc1 (HELM PEPTIDE1{[O=C(OCC1c2ccccc2-c2ccccc21)[*:2]].L.L.L.[c1ccc(CN[*:1])cc1]}$$$$V2.0)	10.7
CC(C)C[C@H](NC(=O)[C@H](CO)NC(=O)[C@H](Cc1ccccc1)NC(=O)C1=CCCNC1)C(=O)NCc1ccccc1	2.93
CC(C)C[C@H](NC(=O)OCc1ccccc1)C(=O)N[C@@H](CC(C)C)C(=O)N[C@@H](CC(C)C)C(=O)NCc1ccccc1 (HELM PEPTIDE1{[O=C(OCc1ccccc1)[*:2]].L.L.L.[c1ccc(CN[*:1])cc1]}$$$$V2.0)	8.93

### Prompt Fill in: IC50 of CC(C)C[C@H](NC(=O)OCc1ccccc1)C(=O)N[C@@H](CO)C(=O)N[C@@H](CC(C)C)C(=O)NCc1ccccc1 (HELM PEPTIDE1{[O=C(OCc1ccccc1)[*:2]].L.S.L.[c1ccc(CN[*:1])cc1]}$$$$V2.0) is ___
### Response 15.8

====

# system-under-test: Proteasome
# experiment-description: Inhibitory activity was evaluated against chymotrypsin-like enzyme
# Format: subcellular
pIC50: −log10 of the molar value. Residues, ends and D or L forms follow the SMILES beside them.
property: pIC50

Check out these entries, answers already filled in.
compound	pIC50
CC(C)C[C@H](NC(=O)[C@H](CO)NC(=O)[C@H](Cc1ccccc1)NC(=O)C1=CCCNC1)C(=O)NCc1ccccc1	5.91
CC(C)C[C@H](NC(=O)[C@H](CO)NC(=O)[C@@H]1CCCN1C(=O)OCC1c2ccccc2-c2ccccc21)C(=O)NCc1ccccc1 (HELM PEPTIDE1{[O=C(OCC1c2ccccc2-c2ccccc21)[*:2]].P.S.L.[c1ccc(CN[*:1])cc1]}$$$$V2.0)	< 4.70

Could you now consider this next compound?
### Prompt Fill in: pIC50 of CC(C)C[C@H](NC(=O)OCc1ccccc1)C(=O)N[C@@H](CO)C(=O)N[C@@H](CC(C)C)C(=O)NCc1ccccc1 (HELM PEPTIDE1{[O=C(OCc1ccccc1)[*:2]].L.S.L.[c1ccc(CN[*:1])cc1]}$$$$V2.0) is ___
### Response < 4.70
